assayed_system: Peptidyl-prolyl cis-trans isomerase FKBP1A (Homo sapiens) (UniProt P62942)
Sequence (P62942 whole entry, looked up): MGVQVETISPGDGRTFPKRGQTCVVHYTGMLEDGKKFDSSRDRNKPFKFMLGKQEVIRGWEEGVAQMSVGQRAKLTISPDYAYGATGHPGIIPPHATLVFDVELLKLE
method_summary: small-molecule binding to FKBP12 – biophysical, NMR detection (AID 608)
reported_conditions: purified FKBP12
Calls of active or inactive are those of the source. No rule for the calls is given here.
Use one of these outcomes when replying: yes for active, no for inactive

Worked examples follow.
{"columns": ["compound", "answer_label"],
 "data": [
  ["O=c1[nH]cc(NCc2ccco2)c(=O)[nH]1", "no"],
  ["CN1C(=O)c2ccc(N3CCCC3)cc2C1=O", "no"],
  ["O=c1c2ccccc2nc2n1CCCCN2", "no"],
  ["C[C@@H]1[C@H]2[C@H](O[C@@H]3O[C@H](CO)[C@@H](O)[C@H](O)[C@H]3O)OC=C(C(=O)O)[C@H]2C[C@@H]1O", "no"],
  ["COc1ccc(-c2nnsc2N)cc1", "no"],
  ["O=C(O[C@@H]1Cc2c(O)cc(O)cc2O[C@@H]1c1cc(O)c(O)c(O)c1-c1c([C@H]2Oc3cc(O)cc(O)c3C[C@H]2O)cc(O)c(O)c1O)c1cc(O)c(O)c(O)c1", "no"]
]}

Data request: Name the outcome recorded for CCS(=O)(=O)N1CCN(c2ccccc2F)CC1 in the assay.
Data returned: no

Data request: Follow-up entry: O=S(=O)(Nc1ccc(Br)cc1)N1CCCCC1
Data returned: yes

Data request: Now consider N#CCN1C(=O)c2ccccc2S1(=O)=O and answer again.
Data returned: no

Data request: Now try CSc1nnc(-c2ccccc2NC(C)=O)o1 .
Data returned: no

Data request: Same lookup for O=C(O)c1cnn2ccccc12 , please.
Data returned: no

Data request: Another compound to look at: O=C(NCCCSc1ncccn1)Nc1ncccn1
Data returned: no

Data request: Same lookup for CC(=O)c1ccc[nH]1 , please.
Data returned: no

Data request: Entry Cc1ccc(N2C(=O)C3C4C=CC(O4)C3C2=O)cc1 (stereo unspecified) please
Data returned: no

Data request: Can you handle COc1cc(OC)c2c(OC)c(-c3ccc4c(c3)OCO4)c(=O)oc2c1 next?
Data returned: no

Data request: Can you handle CCn1c(C)c(C(C)=O)c(N2CCOCC2)nc1=S next?
Data returned: no

Data request: Next: CC(C)c1ccc(SCC(=O)O)cc1
Data returned: no

Data request: Field entry: CCCCCCCCCCCCCCCCCCOCC(O)CO (stereo unspecified)
Data returned: no

Data request: Note, next up: Cc1noc(-c2ccccc2)c1CO
Data returned: no

Data request: Ok, now O=C(c1cc2ccccc2o1)N1CCOCC1
Data returned: no

Data request: Let us now turn to COC(=O)C[C@H]1C(C)(C)C(=O)[C@@H]2CC3=C(CC[C@]4(C)C3=CC(=O)O[C@H]4c3ccoc3)C1(C)C2=O
Data returned: no
